# subject-of-test: T1, SUDV VLP (Sudan virus (SUDV), UniProt Q66814 33-676)
# T1 sequence: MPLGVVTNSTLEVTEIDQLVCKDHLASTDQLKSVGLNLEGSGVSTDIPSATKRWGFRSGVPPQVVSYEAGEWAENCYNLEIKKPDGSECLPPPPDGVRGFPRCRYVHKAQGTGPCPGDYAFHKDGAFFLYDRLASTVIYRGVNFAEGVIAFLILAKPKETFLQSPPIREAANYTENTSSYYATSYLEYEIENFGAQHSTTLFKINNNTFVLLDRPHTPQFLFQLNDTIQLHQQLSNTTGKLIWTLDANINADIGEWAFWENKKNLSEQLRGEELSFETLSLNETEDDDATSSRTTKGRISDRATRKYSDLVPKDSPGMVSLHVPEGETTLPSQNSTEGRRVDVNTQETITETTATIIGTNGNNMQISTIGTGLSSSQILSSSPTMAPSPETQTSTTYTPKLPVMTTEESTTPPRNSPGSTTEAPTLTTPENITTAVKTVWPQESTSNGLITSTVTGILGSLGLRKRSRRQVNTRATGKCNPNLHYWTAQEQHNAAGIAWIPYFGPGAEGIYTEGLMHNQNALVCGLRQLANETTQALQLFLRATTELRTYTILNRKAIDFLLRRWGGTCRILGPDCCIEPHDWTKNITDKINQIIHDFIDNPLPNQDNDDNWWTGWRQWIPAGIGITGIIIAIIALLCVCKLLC
# protocol-notes: ELISA
experimental-readout: pEC50
One number for each entry, as −log10 of the molar value.

Study these solved cases before continuing.
FVM01P (antibody, V domains shown) VH: QVQLQESGPGLVKPSETLSLTCTVSGASISNYRWNWIRQPPGKGLEWIGEINGYSGSTNYNPSLKSRVTISKDASKNQFSLKLTSVTAADTAVYYCPIIGGFTLEWFDVWGPGVLVTVSS VL: DVVLTQSPSSLSASVGDRVTITCRASQGIRNYLNWYQQKPRKAPKLLIYAASSLQSGVPSRFSGSGSGTEFTLTISSLQAEDFATYYCLQGYRTPFTFGPGTKLDIKR    9.50
FVM04 (antibody, V domains shown) VH: EVQLVQSGGGLVQPGGSMRLSCEASGLSLSDYFMHWVRQAQGKGLEWIGLIQTKAFTYKTEYPAAVKGRFTISRDDSKNTLYLQMSSLKPEDTALYYCIAVTPDFYYWGQGVLVTVSS VL: DVVMTQSPSFLSASVGDRVTITCRASQDITINLNWFQHKPGKAPKRLIYVASRLERGVPSRFSGSGSGTEFTLTISSLQPEDFATYYCQQYNNYPLTFGPGTKLDIKR    9.71
FVM22 (antibody, V domains shown) VH: EVQLVQSGAEVKRPGESLTISCKTSGYSFTDSWVAWVRQMPGKGLEWLGSIYPGDSETKYNPSFQGHVTISADKSISTAYLQWSSLKASDTATYYCAKGSETWGQGVLVTVSS VL: SSGLTQPASLSASPGASASLTCTFSGGINVAGYNILWYQQKAGSPPRYLLRYKSDSTKDQGSGVPSRFSGSKDASANTGILRISGLQSEDEADYYCAIGHSSGWIFGGGTRLTVL    9.76
FVM38 (antibody, V domains shown) VH: QVQLVQSGAEVKRPGESLTISCKTSGYSFTDSWIGWVRQMPGKGLEWMASIYPDDSETKYNPSFQGHVTISADKSVTTTYLKWSSLKASDTATYYCVKGSETWGQGVLVTVSS VL: QPVLTQPASLSASPGASASLTCTFSGGINVAGYNILWYQQKAGSPPRYLLRYKSDSTKDQGSGVPSRFSGSKDASANTGILRISGLQSEDEADYYCAIGHSSGWIFGGGTRLTVL    9.83
FVM18 (antibody, V domains shown) VH: QVQLVQSGAEVKRPGESLKISCKTSGYSFTNIWISWVRQMPGKGLEWLGSIYPGDSETKYNPSFQGHVTISADKSVTTTYLKWSSLKASDTATYYCVKGSETWGQGVLVTVSS VL: NFMLTQPASLSASPGASASLTCTFSGGINVAGYHILWYQQKPGSPPRYLLRYKSDSEKDQGSGVPSRFSGSKDASANRGILRISGLQSEDEADYYCAIGHSSSGWVFGGGTRLTVL    8.97
FVM02P (antibody, V domains shown) VH: EVQLVESGGGLVQPGGSLRLSCAASGFTGFTFSDYAFYWVRQAPGKGLEWVGFIRGKAYGGTADYAASVKGRFTISRDNSKNTAYLQMSSLKTEDSAVYYCTSQGVTVATPYHWGQGVLVTVSS VL: DIVLTQSPLSLPVTPGEPASISCRSSQSLLHSGGKTYLYWYLQKPGQSPQLLIHEVSNRASGVPDRFSGSGSGTDFTLKISRVEAEDVGVYYCMQGIQLPLTFGGGTKVEIKR    9.45
FVM21 (antibody, V domains shown) VH: EVQLVESGAEVKRPGESLTISCKTSGYSFTDSWVAWVRQMPGKGLEWLGSIYPGDSETKYNPSFQGHVTISADKSISTTYLQWSSLRASDTATYYCVKGADDWGPGLLVTVSS VL: SSELTQPASLSASPGASASLTCTFSGGINVAGYNILWYQQKAGSPPRYLLRYKSDSDKGQGSGVPSRFSGSKDASANTGILRISGLQSEDEADYYCAIGHSSGWIFGGGTRLTVL    9.43
FVM09 (antibody, V domains shown) VH: EVQLVQSGAEVKRPGESLTISCKTSGYSFTDSWVAWVRQMPGKGLEWLGSIYPGDSETKYNPSFQGHVTISADKSVTTTYLKWSSLKASDTATYYCVKGSETWGQGVLVTVSS VL: QLVLTQPASLSASPGASASLTCTFSGGINVAGYNILWYQQKAGSPPRYLLRYKSDSTKDQGSGVPSRFSGSKDASANTGILRISGLQSEDEADYYCAIGHSSGWIFGGGTRLTVL    7.67
FVM15 (antibody, V domains shown) VH: QVQLVQSGAEVKRPGESLRISCKTSGYTFTDYWIAWVRQMPGKGLEWMGSIYPGDSETKYNPSFQGHVTISADKSVTTTYLKWSRLKASDTATYYCVKGSETWGQGVLVTVSS VL: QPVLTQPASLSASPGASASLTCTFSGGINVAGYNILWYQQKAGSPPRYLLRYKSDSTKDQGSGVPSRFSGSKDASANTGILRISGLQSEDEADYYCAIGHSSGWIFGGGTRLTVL    9.89

Proceed to the following item.
Lookup: For FVM10 (antibody, V domains shown) VH: QVQLVQSGAEVKRPGESLKISCQTSGYSFTDSWVAWVRQMPGKGLEWLGSIYPGDSETKYNPSFQGHVTISADKSISTAYLQWSSLKASDTATYYCAKGSETWGQGLRVTVSS VL: QAGLTQPASLSASPGASASLTCTFSGGINVAGYNILWYQQKPGSPPRYLLRYKSDSDKDQGSGVPSRFSGSKDASANTGILRISGLQSEDEADYYCAIGHSSGWIFGGGTRLTVL , what is its reported pEC50?
Found: 9.16
